test system: NCI-H23 lung; experiment: NCI-60 one-dose screen, 48 h (100 = growth as untreated, 0 = no growth, -100 = all killed); conditions: 10 µM unless noted
This is part of a sample that, as a whole, favours compounds with a hit. Of some 83,000 tested, about 20% had one in any assay.
PROPERTY MEASURED: growth (%)
Output spec: scalar in %, unitless text.

Ask | Reported growth for NCI-H23 lung, given O=C(N/N=C/c1ccc([N+](=O)[O-])o1)c1cc([N+](=O)[O-])cc([N+](=O)[O-])c1O ?
Reply | 94.1

Ask | Record: C#CC1(O)CCC2(C)C(CCC3C4CCC(=O)C4(C)CCC32)C1 (centres undefined)
Reply | 97.3

Ask | Record: CC(C)OC(=S)[S-].[Au+].c1ccc([PH+](c2ccccc2)c2ccccc2)cc1
Reply | 42.4

Data provenance is PubChem BioAssay (NCI).
